Hello, the source for this data is PubChem BioAssay AID1159580, in case you need it.

Protocol Description: chemical genetic growth profiling, strain panel (AID 1159580);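 note: tested at 20 µM; growth read once vehicle control cultures reached saturation at 30 °C; 1 = growth at the plate median or of vehicle wells; lower values mean less growth of the strain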
Condition Summary: S. cerevisiae deletion strains, growth OD, locus YNR049C, strain mso1, hits give low values
Among all 5,500 compounds or so, about 2,000 (36%) were called active. Not shown: some 18% with an inconclusive outcome. This is one part of the list.
For each of the molecules below, state its normalized growth.
One number for each entry.

{"Molecule": "Clc1ccc(CO/N=C(/Cn2ccnc2)c2ccc(Cl)cc2Cl)c(Cl)c1", "normalized growth": 0.0594}
{"Molecule": "CC(C)/C(O)=C1/C(=O)O[C@@H](c2ccoc2)[C@]2(C)C(O)[C@@H](O)[C@@]34OC5(C)OC67CC(C)(C(O)[C@]6(O)[C@@H](O)[C@]3(O5)C12)[C@H](CC(=O)O)[C@]74C (stereo not given in full)", "normalized growth": 0.974}
{"Molecule": "COP(=S)(OC)Oc1ccc(Sc2ccc(OP(=S)(OC)OC)cc2)cc1", "normalized growth": 1.01}
{"Molecule": "COc1ccc2c(c1)OCC(Cc1ccc(OC)c(OC(C)=O)c1)C2=O (stereo not given)", "normalized growth": 0.97}

Alright, here's another molecule for you.
**Q:** I am curious: what normalized growth value has been reported for COP(=S)(OC)Oc1ccc([N+](=O)[O-])cc1 ?
**A:** 1.01

###

Protocol Description: chemical genetic growth profiling, strain panel (AID 1159580);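 note: tested at 20 µM; growth read once vehicle control cultures reached saturation at 30 °C; 1 = growth at the plate median or of vehicle wells; lower values mean less growth of the strain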
Condition Summary: S. cerevisiae deletion strains, growth OD, locus YPL209C, strain IPL1, hits give low values
Hit rate of the full screen: of about 5,500 compounds, about 2,000 (36%) were called active. About 18% were inconclusive and are not listed. The list shows a part of the results.
For each of the molecules below, state its normalized growth.
Answers are plain numbers.

Please review the entries below; each comes with its answer.
{"Molecule": "Cc1ccc(S(=O)(=O)Nc2nc(-c3ccc(C)c(Cl)c3)c(C)s2)cc1", "normalized growth": 0.986}
{"Molecule": "CC1=CC(=O)N(c2ccc(OC(F)(F)F)cc2)C1=O", "normalized growth": 0.862}
{"Molecule": "CNC(=O)Sc1c(-c2ccc(Cl)cc2)nn(C(=O)NC)c1SC", "normalized growth": 0.97}
{"Molecule": "O=C(NNc1ccccc1)c1cc(-c2ccc(Cl)cc2)oc1C(F)(F)F", "normalized growth": 0.926}

Parameters: items (list). Returns: normalized growth for each item.
1. O=S(=O)(NCc1ccc(C(F)(F)F)cc1)c1cc(Br)c(Br)s1
2. Cc1ccc(NC(=S)C(C#N)C(=O)N2CCOCC2)c(C)c1 (centres undefined)

**A:**
0.973
0.99

Parameters: items (list). Returns: normalized growth for each item.
1. CC(C)(C)C1=C(C#N)C(c2c(Cl)cccc2Cl)C(C#N)=C(N)O1 (centres undefined)
2. Clc1ccc(Oc2ccnc3cc(Cl)ccc23)cc1

**A:**
1: 0.993; 2: 0.918

**Q:** I am curious: what normalized growth value has been reported for Cc1c(S(=O)(=O)Nc2cccc([N+](=O)[O-])c2)sc2ccc(Cl)cc12 ?
**A:** 0.973

###

Protocol Description: chemical genetic growth profiling, strain panel (AID 1159580);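 note: tested at 20 µM; growth read once vehicle control cultures reached saturation at 30 °C; 1 = growth at the plate median or of vehicle wells; lower values mean less growth of the strain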
Condition Summary: S. cerevisiae deletion strains, growth OD, locus YHR094C, strain hxt1, hits give low values
The whole screen tested about 5,500 compounds, of which about 2,000 (36%) were called active. Another 18% or so got no clear call; they are omitted. This is one part of the list. Where a SMILES comes first, the peptide text is derived from it.
Recorded Endpoint: normalized growth
Numbers only.

Please review the entries below; each comes with its answer.
{"Compound": "C[C@]12CCC3c4ccc(OC(=O)c5ccccc5)cc4CCC3C1CCC2=O (stereo partly drawn)", "Value Observed": 0.999}
{"Compound": "Cc1oncc1C(=O)Nc1ccc(C(F)(F)F)cc1", "Value Observed": 0.99}
{"Compound": "CC(C)/C(O)=C1/C(=O)O[C@@H](c2ccoc2)[C@]2(C)C(O)[C@@H](O)[C@@]34OC5(C)OC67CC(C)(C(O)[C@]6(O)[C@@H](O)[C@]3(O5)C12)[C@H](CC(=O)O)[C@]74C (stereo partly drawn)", "Value Observed": 1.01}
{"Compound": "CC(=O)N[C@@H](CC(=O)O)C(=O)N[C@@H](CCC(=O)O)C(=O)O (Ac-Asp-Glu-OH)", "Value Observed": 0.985}
{"Compound": "CC12CCC3C(=CCc4cc(O)ccc43)C1CCC2=O (stereo not drawn)", "Value Observed": 1.01}

Parameters: items (list). Returns: normalized growth for each item.
1. CC(=O)O[C@@H]1CC2C(C)(C)[C@H](O)CC[C@]2(C)C2CC[C@@]3(C)[C@H](c4ccoc4)OC(=O)[C@H]4O[C@]43[C@@]21C (stereo partly drawn)
2. CC(=O)O[C@H]1C[C@@H](OC(C)=O)C(C)(C)C2C[C@@H](OC(C)=O)[C@]3(C)C(CC[C@@]4(C)[C@H](c5ccoc5)OC(=O)[C@H]5O[C@]543)[C@]21C (stereo partly drawn)
3. C=C[C@@]1(C)CC(=O)[C@@]2(O)[C@](C)(O1)[C@@H](OC(C)=O)[C@@H](O)C1C(C)(C)CC[C@H](O)[C@@]12C (stereo partly drawn)

**A:**
1. 1.01
2. 1.01
3. 0.987
